B1: HDV Ribozyme (parent)
chain: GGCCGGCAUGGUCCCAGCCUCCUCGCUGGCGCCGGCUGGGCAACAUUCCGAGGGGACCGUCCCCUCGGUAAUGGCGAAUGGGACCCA

# Variants of: B1
# ASSAY TEXT: self-cleavage, relative activity (ratio to wild type); higher = more cleavage; co-transcriptional
Quick list: self-cleavage per entry.

# CHAIN SEQUENCE, self-cleavage
measured = [
    ("GGCCGGCAUGGUCGCAGCCUCCUCGCUGGCGCCGUCUGGGCAACAUUCCGAGGGGACCGUCCCCUCGGUAAUGGCGAAUGGGACCCA", 0),
    ("GGCCGGCAUGGUCCCAGCCUCCUCGCUGGCGCCGGCUCGGCAACAUUCCGAGGGGACCGUCCCCUCGGUAAUGGUGAAUGGGACCCA", 0.0297),
    ("GGCCGGCAUGUUCCCAGCCUCCUCGCUGGCGGCGGCUGGGCAACAUUCCGAGGGGACCGUCCCCUCGGUAAUGGCGAAUGGGACCCA", 0.0767),
    ("GGCCGGCAUGGUCCCAGCCUCCUCGCUGGCGCCGGCUGGGCAACAUUCCGAGGGGACCGUCCCCUCCGUGAUGGCGAAUGGGACCCA", 0.712),
    ("GGCCGGCAUGGUCCCAGCCUCCUCGCUGGCGCCGGCUGGGCAACAUUCCGAGGGGACCGUCCCCUCGGUAAUGGUGACUGGGACCCA", 0),
    ("GGCCGGCAUGGUCCCAGCCUCCUCGCUGGCGCCGGCUGGGCAACAUUCCGAAGGGACCGUCCCCUCGGUGAUGGCGAAUGGGACCCA", 1.02),
    ("GGCCGGCAUGGUCCCAGCCUCCUCGCUGGCUCCGGCUGGGCAACAUUCCUAGGGGACCGUCCCCUCGGUAAUGGCGAAUGGGACCCA", 0.415),
    ("GGCCGGCAUGGUCCCAGCCUCCUCGCUGGCGCCGGCUGGGCAACAUUCCGAGGGGACCGUCCGCUCGGAAAUGGCGAAUGGGACCCA", 1.16),
    ("GGCCGGCAUGGUCCCAGCCUCCUCGCUGGCGCCGGCUGGGUAACAUUCCGAGGGGACCGCCCCCUCGGUAAUGGCGAAUGGGACCCA", 0.906),
    ("GGCCGGCAUGGUCCCAGCCUCCUCGACGGCGCCGGCUGGGCAACAUUCCGAGGGGACCGUCCCCUCGGUAAUGGCGAAUGGGACCCA", 1.04),
    ("GGCCGGCAUGGUCCCAGCCUCCUCGCUGGCGCCGGCUGGGCAAUAUUCCGAGGGGACCGUCCCCUCGGUAAUGGCGAAUGGUACCCA", 0.282),
]
